assay: ATG_RORE_CIS: Attagene CIS-FACTORIAL HepG2 Assay for human RAR-related Orphan Receptor Element (RORE) (AID 2282959); details: HepG2 Attagene cis-factorial RORE reporter, mRNA; actives raise or lower the signal
The source made the active and inactive calls. How the source made its calls: active means hit-call score of the fitted dose curve at least 0.9, where 1 is the maximum; inactive means score below 0.9.
Your answer must be one of the following: active, inactive

Below, 2 compounds whose answers are already recorded.
INSERT INTO results (compound, classification) VALUES
  ('CC=CC(=O)O', 'inactive'),
  ('C[Si](C)(C)O[Si](C)(C)O[Si](C)(C)C', 'inactive');

Ask: Entry `Clc1ccccn1` : call = ?
Reply: inactive

Ask: Entry `Cc1ccnc(N)c1` : call = ?
Reply: inactive

Ask: Entry `CC(=O)Nc1c(I)c(NC(C)=O)c(I)c(C(=O)O)c1I` : call = ?
Reply: inactive

Ask: Entry CCOc1ccc2c(c1)C(C)CC(C)(C)N2 (stereo not drawn) : call = ?
Reply: inactive

Ask: Entry `CCCc1c(OCCCCc2nn[nH]n2)ccc(C(C)=O)c1O` : call = ?
Reply: active

Ask: Entry `C=C1CC[C@H]2C[C@@H]1C2(C)C` : call = ?
Reply: inactive

Ask: Entry `CC(=O)CCc1ccccc1` : call = ?
Reply: inactive

Ask: Entry `NC(N)=Nc1nc(CSCCC(N)=NS(N)(=O)=O)cs1` : call = ?
Reply: inactive

Ask: Entry `CO[Si](CCCNCCN)(OC)OC` : call = ?
Reply: inactive

Ask: Entry `CCCC[N+]1(C)CCCC1` : call = ?
Reply: inactive

Ask: Entry `CCc1cc(C(N)=S)ccn1` : call = ?
Reply: inactive

---

molecular target: Cellular tumor antigen p53 (Homo sapiens); assay: TOX21_p53_BLA_p3_ratio: Tox21 HCT-116 p53 Agonism Beta-lactamase Assay, Ratio, Phase 3 (AID 2283596)
Inconclusive results are not listed. The source made the active and inactive calls. The calls were made as follows: active = hit-call score of the fitted dose curve at least 0.9, where 1 is the maximum; inconclusive = response in the unintended direction; inactive = score below 0.9.
Measured Metric: outcome

INSERT INTO assay_data (molecule, data_value) VALUES
  ('C(=C\c1ccccc1)/c1ccccc1', 'inactive'),
  ('COc1ccc(S(=O)(=O)Nc2nnc(CC(C)C)s2)cc1', 'inactive'),
  ('Cc1cc(C(C)(C)C)cc(C)c1CC1=NCCN1', 'inactive'),
  ('CC(C)C(O)C(C)(C)CO (stereo unspecified)', 'inactive'),
  ('Cc1cn[nH]c1', 'inactive');

Ask: // lookup outcome for `N#Cc1ccc2c(c1)N(CCCN1CCC(O)CC1)c1ccccc1S2`
Reply: inactive

Ask: // lookup outcome for `CC[C@H](NC(C)C)[C@H](O)c1ccc(O)c2[nH]c(=O)ccc12`
Reply: inactive

Ask: // lookup outcome for `CC(=O)N/N=C/c1ccc([N+](=O)[O-])o1`
Reply: inactive

---

experiment: BSK_KF3CT_SRB: Viability Assessment in the BioMAP Diversity Plus: KF3CT Assay (AID 2283069); conditions: primary human keratinocytes with fibroblasts;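 further: total protein by sulforhodamine B staining as a cytotoxicity measure; read 24 h after compound addition; fitted for both signal gain and loss against DMSO baseline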
Calls of active or inactive are those of the source. How the source made its calls: active means hit-call score of the fitted dose curve at least 0.9, where 1 is the maximum; inactive means score below 0.9.
Your answer must be one of the following: active, inactive

INSERT INTO results (compound, classification) VALUES
  ('CCCCCCCCCCC1CO1 (stereo unspecified)', 'active'),
  ('COC(=O)/C=C\C(=O)OC', 'inactive'),
  ('COc1ccc(C(=O)c2ccccc2O)c(O)c1', 'inactive'),
  ('O=[N+]([O-])c1cc(S(=O)(=O)Nc2ccccc2)ccc1Nc1ccccc1', 'active'),
  ('Sc1nc2ccccc2s1', 'inactive');

Please examine the following record next.
Ask: Entry `COc1cc(CNC(=O)CCCC/C=C/C(C)C)ccc1O` : call = ?
Reply: inactive

---

test: TOX21_p53_BLA_p5_viability: Viability Assessment in the Tox21 HCT-116 p53 Agonism Beta-lactamase Assay, Phase 5 (AID 2283600)
Records with an inconclusive call do not appear. Active and inactive are the calls of the source. How the source made its calls: active means hit-call score of the fitted dose curve at least 0.9, where 1 is the maximum; inconclusive means response in the unintended direction; inactive means score below 0.9.
Your answer must be one of the following: active, inactive

Below, 3 compounds whose answers are already recorded.
INSERT INTO results (compound, classification) VALUES
  ('CCCCCCCC', 'inactive'),
  ('O=C(CCBr)N1CCN(C(=O)CCBr)CC1', 'inactive'),
  ('CCCCCCCCCCCCCCCCCC(=O)OC[C@@H](O)[C@H]1OC[C@H](O)[C@H]1O', 'inactive');

Ask: Entry `Cc1ncc(CO)c(CN)c1O` : call = ?
Reply: inactive

Ask: Entry `O=c1[nH]c(=O)n([C@H]2C[C@H](O)[C@@H](CO)O2)cc1F` : call = ?
Reply: active

Ask: Entry CC(NN)c1ccccc1 (stereo not drawn) : call = ?
Reply: inactive

Ask: Entry `CCc1ccc(S(=O)(=O)O)cc1` : call = ?
Reply: inactive

Ask: Entry `O=CC=C(c1ccccc1)c1ccccc1` : call = ?
Reply: inactive

---

experiment: ATG_ERE_CIS: Attagene CIS-FACTORIAL HepG2 Assay for Estrogen Response Element (ERE) (AID 2282940); details: HepG2 ERE cis-reporter, Attagene RNA transcript; actives raise or lower the signal
Activity calls are given as the source filed them. Rule for the calls: active = hit-call score of the fitted dose curve at least 0.9, where 1 is the maximum; inactive = score below 0.9.
Your answer must be one of the following: active, inactive

Below, 5 compounds whose answers are already recorded.
INSERT INTO measurements (compound, classification) VALUES
  ('O=C(O)c1ccccc1C(=O)O', 'inactive'),
  ('NC(N)=Nc1nc(CSCCC(N)=NS(N)(=O)=O)cs1', 'active'),
  ('Oc1ccc(Cl)cc1C1CCCC1', 'active'),
  ('NC(=O)c1ccc(N)cc1', 'inactive'),
  ('O=[N+]([O-])c1ccccc1C(F)(F)F', 'inactive');

Ask: Entry `CCCCCCCCCCCCCCCCCC[N+](C)(C)C` : call = ?
Reply: inactive

---

Target: Cellular tumor antigen p53 (Homo sapiens) (UniProt P04637)
Sequence (P04637 whole entry, looked up): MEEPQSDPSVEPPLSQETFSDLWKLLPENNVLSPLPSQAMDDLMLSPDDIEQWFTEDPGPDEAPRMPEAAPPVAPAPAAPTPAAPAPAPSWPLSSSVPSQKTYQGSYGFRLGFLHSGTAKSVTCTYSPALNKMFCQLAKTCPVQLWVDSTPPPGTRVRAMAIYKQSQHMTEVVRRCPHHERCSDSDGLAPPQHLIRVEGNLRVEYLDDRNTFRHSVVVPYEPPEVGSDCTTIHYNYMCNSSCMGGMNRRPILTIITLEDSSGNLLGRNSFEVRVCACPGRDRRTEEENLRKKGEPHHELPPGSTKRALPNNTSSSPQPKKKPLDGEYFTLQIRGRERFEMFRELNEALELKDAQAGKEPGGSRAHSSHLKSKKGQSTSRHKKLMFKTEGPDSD
Assay: TOX21_p53_BLA_p4_ratio: Tox21 HCT-116 p53 Agonism Beta-lactamase Assay, Ratio, Phase 4 (AID 2283601)
Experimental: TOX21_p53_BLA_p4 is a cell-based, single-readout assay that uses HCT116, a human intestinal cell line, […] in a 1536-well plate.TOX21_p53_BLA_p4_ratio is an assay readout measuring reporter gene via receptor activity and designed using inducible reporter (beta lactamase induction) detected with GAL4 b-lactamase reporter gene. […] This assay endpoint, TOX21_p53_BLA_p4_ratio, was analyzed in the positive analysis fitting direction relative to DMSO as the negative control and baseline of activity. […]
Inconclusive results are not listed. Active and inactive are the calls of the source. Rule for the calls: active = hit-call score of the fitted dose curve at least 0.9, where 1 is the maximum; inconclusive = response in the unintended direction; inactive = score below 0.9.
Your answer must be one of the following: active, inactive

Below, 3 molecules whose answers are already recorded.
INSERT INTO measurements (molecule, classification) VALUES
  ('CCCCC(O)c1ccccc1 (stereo not given)', 'inactive'),
  ('CC(C)(C)C(=O)Oc1ccc(S(=O)(=O)Nc2ccccc2C(=O)NCC(=O)O)cc1', 'inactive'),
  ('N=C(N)N', 'inactive');

Ask: Entry `CCN(CC)c1ccc(N)cc1` : call = ?
Reply: active

Ask: Entry CC12CCC(C[N+](C)(CCC[N+](C)(C)C)C1)C2(C)C (stereo not given) : call = ?
Reply: inactive

Ask: Entry CC(O)C(CO)C(C)O (stereo not given) : call = ?
Reply: inactive

Ask: Entry `O=C1Nc2ccc([N+](=O)[O-])cc2C1=O` : call = ?
Reply: active

Ask: Entry CC1=CCCC(C)(C)C12CCC(C)O2 (stereo not given) : call = ?
Reply: inactive

---

molecular target: Thyroid hormone receptor alpha (Rattus norvegicus) + Thyroid hormone receptor beta (Rattus norvegicus) (UniProt P18113+P63059); test: TOX21_TR_LUC_GH3_Antagonist_Followup: Tox21 GH3 Thyroid Hormone Receptor Antagonism Luciferase Follow-Up Assay (AID 2283942)
Inconclusive results are not listed. The source made the active and inactive calls. The calls were made as follows: active = hit-call score of the fitted dose curve at least 0.9, where 1 is the maximum; inconclusive = response in the unintended direction; inactive = score below 0.9.
Your answer must be one of the following: active, inactive

Below, 8 compounds whose answers are already recorded.
INSERT INTO measurements (compound, classification) VALUES
  ('Brc1cc(Oc2cc(Br)c(Br)c(Br)c2Br)c(Br)c(Br)c1Br', 'inactive'),
  ('O=C(CCCCCCCCC#CI)Oc1ccccc1', 'inactive'),
  ('CC(=O)[C@H]1CC[C@H]2[C@@H]3C=CC4=CC(=O)CC[C@@]4(C)[C@@H]3CC[C@]12C', 'inactive'),
  ('CC(=O)Nc1ccn(C2COC(COC(=O)c3ccccc3)O2)c(=O)n1 (centres undefined)', 'inactive'),
  ('CC[C@@]1(O)C[C@@H]2CN(CCc3c([nH]c4ccccc34)[C@@](C(=O)OC)(c3cc4c(cc3OC)N(C)[C@H]3[C@@](O)(C(=O)OC)[C@H](OC(C)=O)[C@]5(CC)C=CCN6CC[C@]43[C@@H]65)C2)C1', 'active'),
  ('COc1cc([C@@H]2c3cc4c(cc3[C@H](O)[C@H]3COC(=O)[C@H]23)OCO4)cc(OC)c1OC', 'inactive'),
  ('COc1ccc2nc(NC(=O)Nc3ccccc3)sc2c1', 'inactive'),
  ('C#CCC(Cc1cnc2nc(N)nc(N)c2n1)c1ccc(C(=O)N[C@@H](CCC(=O)O)C(=O)O)cc1 (some centres undefined)', 'inactive');

Ask: Entry `CC[C@@]1(O)C(=O)OCc2c1cc1n(c2=O)Cc2cc3c(CN(C)C)c(O)ccc3nc2-1` : call = ?
Reply: inactive

Ask: Entry C[n+]1c2cc(N)ccc2cc2ccc(N)cc21 (tested in a mixture with another compound) : call = ?
Reply: active

Ask: Entry `NC(N)=NCc1cccc(I)c1` : call = ?
Reply: inactive

Ask: Entry `CC(C)N=C(N)/N=C(\N)Nc1ccc(Cl)cc1` : call = ?
Reply: inactive

Ask: Entry CC(C(=O)O)c1ccc(N2Cc3ccccc3C2=O)cc1 (centres undefined) : call = ?
Reply: inactive
